- System: Plasmodium falciparum FCR-3 strain
- assay explanation: Drug sensitive-Plasmodium falciparum growth inhibition screening test
- Type: cell-based
- assay context: Plasmodium falciparum, FCR3, Erythrocyte, 72 h, read-out: 50% growth inhibition concentration P. falciparum FCR
- Procedure: In the present example, protozoa of Plasmodium falciparum FCR-3 strain was used. RPMI-1640 medium sterilized with a filter was used in the experiment. pH was adjusted to 7.4, and human serum was added to be 10%. Malarial parasites were cultured under 5% O2 concentration, 5% CO2 concentration, 90% N2 concentration, and at a temperature of 36.5° C. Cultured malarial parasite infected-erythrocytes were collected by centrifugation, and washed in a medium containing serum. […]

molecule: CCN(CC)CCCC(C)Nc1ccnc2cc(Cl)ccc12 (stereo not shown) [chloroquine, reference compound]
EC50 / nM: 18

Origin of the recorded values: patent US8193224B2
